Reported growth inhibition by item:
Assay: NCI Yeast Anticancer Drug Screen. Data for the sgs1 mgt1 strain (AID 161);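 also: 0% = growth of cultures given vehicle only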
Conditions: S. cerevisiae sgs1 mgt1 strain, active compounds read high; at 50.0 µM unless noted
The panel holds about 79,000 compounds, 15% with a hit somewhere; the sample as a whole holds those more often.
Write down the numeric answer in % and omit the unit.

// solved cases for growth inhibition follow
>  <compound>
NC1=CNC(=O)C1

>  <endpoint.value>
-3.05

$$$$
>  <compound>
CC(=O)Oc1cc(C)c(OC(C)=O)c2ccccc12

>  <endpoint.value>
4.45

$$$$
>  <compound>
CC1=CSC2=NCCCCN12

>  <endpoint.value>
13.3

$$$$

Note: attention shifts to another entry.
The recorded growth inhibition for entry O=C1CCC2OC(=O)C3CCCC1C23 (configuration not stated) equals -19

----------
Assay: NCI Yeast Anticancer Drug Screen. Data for the rad50 strain (AID 155);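 also: 0% = growth of vehicle-only cultures of the same strain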
Conditions: S. cerevisiae rad50 strain growth inhibition, active compounds read high; at 50.0 µM unless noted
This is part of a sample that, as a whole, favours compounds with a hit. Of some 79,000 tested, about 15% had one in any assay.
Reported growth inhibition by item:
Write down the numeric answer in % and omit the unit.

// solved cases for growth inhibition follow
>  <molecule>
Cc1ccc(S(=O)(=O)CCN2CCN(C)CC2)cc1

>  <growth inhibition, %>
8.6

$$$$
>  <molecule>
CCOC(=O)c1oc2cc(O)ccc2c(=O)c1-c1ccc(OC)c(OC)c1

>  <growth inhibition, %>
5.95

$$$$
>  <molecule>
Cc1nc2cnc(=Nc3ccccc3)nc-2n(-c2ccccc2)c1C

>  <growth inhibition, %>
-1.15

$$$$
>  <molecule>
C=C(C#N)CSc1c(Cl)c(Cl)c(Cl)c(Cl)c1Cl

>  <growth inhibition, %>
34.5

$$$$
>  <molecule>
O=C(Nc1ccccc1)C12CCC(CC1Br)C2 (stereo not drawn)

>  <growth inhibition, %>
4.95

$$$$
>  <molecule>
O=C(O)c1cc(C(=O)O)cc(C(=O)O)c1

>  <growth inhibition, %>
-1.55

$$$$
>  <molecule>
NCCCc1nonc1C(=O)O

>  <growth inhibition, %>
-15.2

$$$$
>  <molecule>
NN=C(c1ccc([N+](=O)[O-])cc1)c1ccc([N+](=O)[O-])cc1

>  <growth inhibition, %>
-3.3

$$$$

The recorded growth inhibition for entry `CCOC(=O)c1ccc(NC(=O)Nc2ccc(F)cc2)cc1` equals 3.5

The recorded growth inhibition for entry `NCCNc1ccccc1` equals -32.9

The recorded growth inhibition for entry `CCCCCCCOC(=O)C1(O)CCCCC1` equals 6.1

----------
Test: NCI Yeast Anticancer Drug Screen. Data for the sgs1 mgt1 strain (AID 161);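 also: 0% = growth of cultures given vehicle only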
Conditions: S. cerevisiae sgs1 mgt1 strain, active compounds read high; at 50.0 µM unless noted
This is part of a sample that, as a whole, favours compounds with a hit. Of some 79,000 tested, about 15% had one in any assay.
property.measured: growth inhibition (%)
Write down the numeric answer in % and omit the unit.

// solved cases for growth inhibition follow
>  <molecule>
CC(O)CNC(=O)C(C)(C)O (configuration not stated)

>  <growth inhibition [%]>
20.7

$$$$
>  <molecule>
S=c1c2[nH]cnc2ncn1CCSC1=NC=NC2=NC=NC21 (configuration not stated)

>  <growth inhibition [%]>
-26.9

$$$$
>  <molecule>
CCOC(=O)c1cc(C)ncc1N

>  <growth inhibition [%]>
-7.1

$$$$
>  <molecule>
CCOC(=O)C(C#N)(CC(=O)OC)C(c1cccc2ccccc12)c1cccc2ccccc12 (configuration not stated)

>  <growth inhibition [%]>
12.7

$$$$
>  <molecule>
CC1C(c2ccccc2)OCCN1CN1C(=O)c2ccccc2C1=O (configuration not stated)

>  <growth inhibition [%]>
12.4

$$$$
>  <molecule>
CCCCCCCCCCCCC

>  <growth inhibition [%]>
-18.2

$$$$
>  <molecule>
CN(C)c1nc(S(C)(=O)=O)nc2nc(Cl)[nH]c12

>  <growth inhibition [%]>
-0.85

$$$$
>  <molecule>
CN(C)C(=O)NCCN(CCNC(=O)N(C)C)C(=O)N(C)C

>  <growth inhibition [%]>
-0.9

$$$$

The recorded growth inhibition for entry COc1ccc(/C=N/N2CN(C(C)C(=O)O)B(NCCC(C)C)N=C2N)cc1OC (configuration not stated) equals 20.9

The recorded growth inhibition for entry COC(=O)C1CC2(CCC1=O)Cc1ccccc1C2=O (configuration not stated) equals 28.5

The recorded growth inhibition for entry c1ccc(Nc2ccccc2)cc1 (tested in a mixture with another compound) equals 1.95

The recorded growth inhibition for entry CCCCN(CCCC)CCCC(O)c1c2ccccc2nc2ccccc12 (configuration not stated) equals 7.6

----------
Reported growth inhibition by item:
Test: NCI Yeast Anticancer Drug Screen. Data for the mlh1 rad18 strain (AID 175)
Details: S. cerevisiae mlh1 rad18 strain growth inhibition, active compounds read high; at 50.0 µM unless noted
About 79,000 compounds went through this panel and 15% of them were active in at least one assay; those are over-represented in the sample as a whole. Where a SMILES comes first, the peptide text is derived from it. Bridges are numbered along the chain shown (N, C = ends). [ ]: non-standard residue; d: D form. Aib = CC(C)(N)C(=O)O; βAla = NCCC(=O)O
Write down the numeric answer in % and omit the unit.

// solved cases for growth inhibition follow
>  <compound>
CC(C)C1CO[C@]2(C)CCC(=O)N12 (some centres not stated)

>  <endpoint.value>
9.95

$$$$
>  <compound>
COc1cccc2c1OC1(N3CCOCC3)CCCCC1C2C[N+](=O)[O-] (configuration not stated)

>  <endpoint.value>
-11.1

$$$$
>  <compound>
CCCCCCCCCCCC

>  <endpoint.value>
-9.9

$$$$
>  <compound>
O=C(Cc1nc2ccccc2s1)C(=O)Nc1cccc(C(F)(F)F)c1

>  <endpoint.value>
-6

$$$$
>  <compound>
Cc1cnc2ccccc2c1/C=C/c1ccc(N(C)C)cc1

>  <endpoint.value>
14.1

$$$$
>  <compound>
C/C(CCc1ccccc1)=N\NC(N)=S

>  <endpoint.value>
10.3

$$$$
>  <compound>
CCSC1C(O)C(CO)OC1n1cnc2c(=S)nc[nH]c21 (configuration not stated)

>  <endpoint.value>
0.2

$$$$
>  <compound>
CCN(CCOC)C(C)=O

>  <endpoint.value>
-3.05

$$$$

The recorded growth inhibition for entry CC1(C)NC(=O)C(NC(=O)C(N)CC(=O)O)CCCCNC(=O)CCNC1=O (configuration not stated) (H-DK[Aib][βAla]; lactam 2-C; configuration not given here) equals -17.9

The recorded growth inhibition for entry `CC(C)C(C(N)=O)(C(=O)O)C(C)C` equals 6.85

The recorded growth inhibition for entry CC12CC[C@H](O)C(C)(C)[C@H]1CC[C@](C)(O)C2COc1ccc2ccc(=O)oc2c1 (some centres not stated) equals 77.1

The recorded growth inhibition for entry `O=C1OCc2ccccc21` equals 3.15

----------
Reported growth inhibition by item:
Assay: NCI Yeast Anticancer Drug Screen. Data for the sgs1 mgt1 strain (AID 161);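 also: 0% = growth of cultures given vehicle only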
Details: S. cerevisiae sgs1 mgt1 strain, active compounds read high; at 50.0 µM unless noted
Experimental: Growth inhibition of yeast strains with defined genetic alterations is measured as a screen for potential anti-cancer activity. Selected strains with alterations in DNA damage repair or cell cycle control were exposed to compounds and growth inhibition was measured relative to vehicle treated controls. The strain used in this assay is sgs1 mgt1
Compounds without any hit were thinned out: in the full panel of roughly 79,000, 15% have a hit. Active and inactive are the calls of the source. Rule as the data show it: active = growth inhibition above about 70%; inactive = the rest.

>  <compound>
CCOC(=O)c1oc2cc(O)ccc2c(=O)c1-c1ccc(OC)c(OC)c1

>  <growth inhibition>
16.3% (inactive)

$$$$
>  <compound>
CCCC(=O)NC1CCCCC1

>  <growth inhibition>
-26.9% (inactive)

$$$$
>  <compound>
CCOC(=O)c1cccc(N)c1C(=O)OCCN(CC)CC

>  <growth inhibition>
-3.75% (inactive)

$$$$
>  <compound>
CCCCCCCCCCCCCCCCCC(=O)CBr

>  <growth inhibition>
10.9% (inactive)

$$$$
>  <compound>
CC(C)OC(=O)CC1NS(=O)(=O)c2ccccc21 (configuration not stated)

>  <growth inhibition>
-9.7% (inactive)

$$$$
>  <compound>
COc1ccc(C2S/C(=C\c3ccc(OC)cc3OC)C(=O)N2NC(=O)Cc2ccccc2)cc1 (configuration not stated)

>  <growth inhibition>
2.4% (inactive)

$$$$
>  <compound>
CC(=O)OC(C#N)c1ccco1 (configuration not stated)

>  <growth inhibition>
-25.2% (inactive)

$$$$
>  <compound>
COc1cc(-c2cc(=O)c3c(O)c(OC)c(OC)c(OC)c3o2)cc(OC)c1OC

>  <growth inhibition>
-10.8% (inactive)

$$$$

The recorded growth inhibition for entry `CC1=NN(C(=O)c2ccccc2O)C(=O)/C1=C/c1ccccc1O` equals -14.8% (inactive)

The recorded growth inhibition for entry `NC(=O)N/N=C(/Cc1nc2ccc(C(=O)c3ccccc3)cc2[nH]c1=O)C(=O)Nc1ccc(C(F)(F)F)cc1[N+](=O)[O-]` equals -7.85% (inactive)

The recorded growth inhibition for entry `CC(=C=CC(c1ccccc1)(c1ccccc1)c1ccccc1)CC(c1ccccc1)(c1ccccc1)c1ccccc1` equals 90.3% (active)

The recorded growth inhibition for entry `CCSCCC#N` equals -13% (inactive)

The recorded growth inhibition for entry `CC(C)N=C(N)N=C(N)N` equals 3.85% (inactive)

The recorded growth inhibition for entry `CC(C)N1CCN(c2ccncc2S(=O)(=O)N2CCCC2)CC1` equals -4.65% (inactive)

The recorded growth inhibition for entry `O=[N+]([O-])c1cc(N(c2ccccc2)c2ccccc2)c(Cl)cc1Cl` equals -27.1% (inactive)

The recorded growth inhibition for entry `CC(=O)ONC(C(=O)C(C)(C)C)C(=O)C(C)(C)C` equals -3.9% (inactive)

The recorded growth inhibition for entry `Cc1ccc(OC(=O)Oc2ccc(C)cc2)cc1` equals 4.35% (inactive)

The recorded growth inhibition for entry CC(C(=O)O)c1ccc(-c2ccccc2)cc1 (configuration not stated) equals -1.85% (inactive)
